Tested on: HEK-293T
Experiment: Incucyte cell viability with HEK293T; further: unitless GR value; below 1 slowed growth and below 0 cell loss
Format: toxicity, cell-based
Details: human, 6 h, 10 µM, compound concentration 10 uM, replicate number 1, timepoint 6 hours
Here the recorded Growth Rate is given for each entry.
outcome_measure: Growth Rate

INSERT INTO measurements (molecule, value_measured) VALUES
  ('CC(=O)c1ccc2c(c1)[C@@H]1C=CC[C@@H]1[C@H](c1cc3c(cc1Br)OCO3)N2', -0.31),
  ('CCCC(CCC)C(=O)O', 0.68),
  ('NC[C@H](O)c1ccc(O)c(O)c1.O.O=C(O)C(O)C(O)C(=O)O', 0.63),
  ('COCCN1CCC(c2cc(CN(C)C(=O)c3cccc(Oc4ccccc4)c3)ccn2)CC1', 0.44),
  ('Cl.N=C(N)NC(=O)Cc1c(Cl)cccc1Cl [GUANFACINE HYDROCHLORIDE]', 0.87),
  ('CC(=O)NCC(=O)N1[C@@H]2CC[C@H]1c1ccc(Nc3ncc(C(F)(F)F)c(NC4CCC4)n3)cc12', -0.73),
  ('CCCN(CCC)CCc1cccc2c1CC(=O)N2.Cl [ROPINIROLE HYDROCHLORIDE]', 0.94),
  ('N=C(N)NCCC[C@@H](NC(=O)C(c1ccccc1)c1ccccc1)C(=O)NCc1ccc(CNC(N)=O)cc1.O=C(O)C(F)(F)F.O=C(O)C(F)(F)F', 1),
  ('CC1(COc2ccc3c(c2)ncn3-c2ccc3cccc(N4CCC(N)CC4)c3n2)COC1', -0.46),
  ('O=C(NCC(=O)N1CC[C@H](N[C@H]2CC[C@@](O)(c3ccc(-c4ncccn4)cn3)CC2)C1)c1cccc(C(F)(F)F)c1', 1),
  ('CC(C)Oc1ccc(Cc2ccc(NC3=NCCN3)cc2)cc1', -0.2),
  ('Cc1cc(=O)n(C)c2cc(N3C(=O)CC[C@H](NS(=O)(=O)CC(C)C)[C@H]3c3ccc(Cl)cc3)ccc12', -0.08),
  ('CCCCC(=O)N(Cc1ccc(-c2ccccc2-c2nnn[nH]2)cc1)[C@H](C(=O)O)C(C)C', 0.44),
  ('Cc1sc2c(c1C)C(c1ccc(Cl)cc1)=N[C@@H](CC(=O)NCCCCCCCCNC(=O)COc1cccc3c1C(=O)N(C1CCC(=O)NC1=O)C3=O)c1nnc(C)n1-2 (some centres not stated)', 0.68),
  ('COc1cc2c(Oc3ccc(NC(=O)C4(C(=O)Nc5ccc(F)cc5)CC4)cc3F)ccnc2cc1OCCCN1CCOCC1', -0.97),
  ('Cc1ccccc1N1CCN(CCc2nnc3n2CCCC3)CC1.Cl [DAPIPRAZOLE HYDROCHLORIDE]', 0.83),
  ('COC(=O)[C@H](CCCNC(=N)N)NC(=O)CCCc1c(-c2ccccc2)[nH]c2c(F)cc(F)cc12.O=C(O)C(F)(F)F', 0.68),
  ('CCCCCCCC/C=C\CCCCCCCC(N)=O [OLEAMIDE]', 0.79),
  ('O=c1ccc2ccc(OCCCCN3CCN(c4cccc5sccc45)CC3)cc2[nH]1', -0.63),
  ('CCN(Cc1ccncc1)C(=O)C(CO)c1ccccc1 (configuration not stated) [TROPICAMIDE]', 0.92),
  ('CC[C@H](Nc1ncnc2[nH]cnc12)c1nc2cccc(F)c2c(=O)n1-c1ccccc1', 0.2),
  ('CCOC(=O)N[C@@H]1CC[C@@H]2[C@@H](C1)C[C@H]1C(=O)O[C@H](C)[C@H]1[C@H]2/C=C/c1ccc(-c2cccc(F)c2)cn1', 0.72),
  ('C=CCN1C[C@H](C(=O)N(CCCN(C)C)C(=O)NCC)C[C@@H]2c3cccc4[nH]cc(c34)C[C@H]21', 0.78),
  ('COc1ccc2cc(S(=O)(=O)N[C@H](CC(=O)N[C@H](Cc3ccc(CN4[C@H](C)CCC[C@@H]4C)cc3)C(=O)N(C)C(C)C)c3ccc4c(c3)OCO4)ccc2c1.Cl', -0.08),
  ('CC1(C)SSC(C)(C)[C@@H](NC(=O)[C@@H](N)Cc2ccc(O)cc2)C(=O)NCC(=O)N[C@@H](Cc2ccccc2)C(=O)N[C@H]1C(=O)O.O=C(O)C(F)(F)F', 0.73),
  ('CCC(=O)NC[C@@H]1C[C@H]1c1cccc2c1CCO2', 0.74),
  ('Fc1cccc(/C=N/N=C/c2cccc(F)c2)c1', 0.72),
  ('CC(C)Oc1ccc(-c2nc(-c3cccc4c3CC[C@@H]4NCCO)no2)cc1C#N', -0.7),
  ('CN1CCN(c2ccc(Nc3c4ccccc4nc4ccccc34)cc2)CC1.Cl.Cl.O', -0.94),
  ('CC(C)C[C@@H](NC(=O)[C@H](Cc1ccccc1)NC(=O)CNC(=O)[C@@H](C)NC(=O)[C@@H](N)Cc1ccc(O)cc1)C(=O)O', 0.4),
  ('CO/C1=C/C(C)=C\[C@@H](C)[C@@H](O)[C@@H](C)C/C(C)=C\C=C/[C@H](OC)C([C@@H](C)[C@@H](O)[C@H](C)[C@@]2(O)C[C@@H](O)[C@H](C)[C@@H](C(C)C)O2)OC1=O (some centres not stated)', -0.8),
  ('C[C@@](Cc1c[nH]c2ccccc12)(NC(=O)Nc1ccc([N+](=O)[O-])cc1)C(=O)NCC1(c2ccccn2)CCCCC1', -0.16);
